# System: 931267-113-T-J1-PDC multicell spheroid viability
# Protocol description: Anticancer human tumor 931267-113-T-J1-PDC patient-derived colon adenocarcinoma cell line growth inhibition [PI3K]
# Experimental context: curve of first compound; second compound 0.01 µM
pIC50: −log10 of the molar value.
Recorded pIC50 for the following molecules

- Molecule: "Cn1ncnc1[C@H]1c2n[nH]c(=O)c3cc(F)cc(c23)N[C@@H]1c1ccc(F)cc1 + COc1c(OCCCN2CCOCC2)ccc2c3n(c(=NC(=O)c4cnc(N)nc4)nc12)CCN3"
  pIC50: "< 7.00"
- Molecule: "CCN1CCN(Cc2ccc(Nc3ncc(F)c(-c4cc(F)c5nc(C)n(C(C)C)c5c4)n3)nc2)CC1 + CC(Nc1ccc2c(c1)OCCn1cc(N3C(=O)OCC3C(F)F)nc1-2)C(N)=O"
  pIC50: "< 6.00"
- Molecule: "CC1(C)CCC(Nc2ncc(C(F)(F)F)c(-c3c[nH]c4c(P(C)(C)=O)c(C#N)ccc34)n2)CN1 (stereo not given) + CC(Nc1ccc2c(c1)OCCn1cc(N3C(=O)OCC3C(F)F)nc1-2)C(N)=O"
  pIC50: "< 5.00"
- Molecule: "CC(Cn1ccc(-c2ccc(C#N)c(Cl)c2)n1)NC(=O)c1cc(C(C)O)[nH]n1 (stereo not given) + CC(Nc1ccc2c(c1)OCCn1cc(N3C(=O)OCC3C(F)F)nc1-2)C(N)=O"
  pIC50: "< 5.00"
- Molecule: "CNC(=O)c1ccc(N2C(=S)N(c3ccc(C#N)c(C(F)(F)F)c3)C(=O)C2(C)C)cc1F + COc1c(OCCCN2CCOCC2)ccc2c3n(c(=NC(=O)c4cnc(N)nc4)nc12)CCN3"
  pIC50: "< 5.00"

----------
# Tested on: 931267-113-T-J1-PDC multicell spheroid viability
# Protocol description: Anticancer human tumor 931267-113-T-J1-PDC cell line growth inhibition [PI3K];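 also: viability read 7 days after compound addition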
# Experimental context: second compound 0.316 µM; first compound 0.1 µM; stronger effect = lower value
Reported viability, T/C values are given for each entry in this list.
Experimental endpoint: viability, T/C

- Compound: "Cn1ncc(Cl)c1-c1cc(C(=O)NC(CN)Cc2cccc(F)c2)sc1Cl (stereo not drawn) + COc1c(OCCCN2CCOCC2)ccc2c3n(c(=NC(=O)c4cnc(N)nc4)nc12)CCN3"
  Value measured: "50.4%"
- Compound: "Cn1nccc1Nc1nccc(-c2ccn(C(CO)c3ccc(Cl)c(F)c3)c(=O)c2)n1 (stereo not drawn) + Cc1nc(NC(=O)N2CCCC2C(N)=O)sc1-c1ccnc(C(C)(C)C(F)(F)F)c1"
  Value measured: "92.2%"
- Compound: "CCCS(=O)(=O)Nc1ccc(F)c(C(=O)c2c[nH]c3ncc(-c4ccc(Cl)cc4)cc23)c1F + COc1c(OCCCN2CCOCC2)ccc2c3n(c(=NC(=O)c4cnc(N)nc4)nc12)CCN3"
  Value measured: "51.3%"

----------
# Test system: 931267-113-T-J1-PDC multicell spheroid viability
# Protocol description: Anticancer human tumor 931267-113-T-J1-PDC cell line growth inhibition [PI3K];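 also: viability read 7 days after compound addition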
# Experimental context: second compound 3.16 µM; first compound 1 µM; stronger effect = lower value
Experimental endpoint: viability, T/C

- Compound: "C#Cc1c(F)ccc2cc(O)cc(-c3ncc4c(N5CC6CCC(C5)N6)nc(OCC56CCCN5CC(F)C6)nc4c3F)c12 (stereo not given) + CC(Nc1ncnc2nc[nH]c12)c1cc2cccc(Cl)c2c(=O)n1-c1ccccc1"
  Measured target: "931267-113-T-J1-PDC multicell spheroid viability"
  Value measured: "36.1%"
- Compound: "CC(C)NCC(C(=O)N1CCN(c2ncnc3c2C(C)CC3O)CC1)c1ccc(Cl)cc1 (stereo not given) + CC(Nc1ncnc2nc[nH]c12)c1cc2cccc(Cl)c2c(=O)n1-c1ccccc1"
  Measured target: "931267-113-T-J1-PDC multicell spheroid viability"
  Value measured: "94.6%"
- Compound: "CC(C)NCC(C(=O)N1CCN(c2ncnc3c2C(C)CC3O)CC1)c1ccc(Cl)cc1 (stereo not given) + Cc1nc(NC(=O)N2CCCC2C(N)=O)sc1-c1ccnc(C(C)(C)C(F)(F)F)c1"
  Measured target: "931267-113-T-J1-PDC multicell spheroid viability"
  Value measured: "65%"
- Compound: "C=CC(=O)N1CCN(c2nc(=O)n(-c3c(C)ccnc3C(C)C)c3nc(-c4c(O)cccc4F)c(F)cc23)C(C)C1 (stereo not given) + CC(Nc1ncnc2nc[nH]c12)c1cc2cccc(Cl)c2c(=O)n1-c1ccccc1"
  Measured target: "931267-113-T-J1-PDC multicell spheroid viability"
  Value measured: "99.9%"
- Compound: "CCN1CCN(Cc2ccc(Nc3ncc(F)c(-c4cc(F)c5nc(C)n(C(C)C)c5c4)n3)nc2)CC1 + CC(Nc1ncnc2nc[nH]c12)c1cc2cccc(Cl)c2c(=O)n1-c1ccccc1"
  Measured target: "931267-113-T-J1-PDC multicell spheroid viability"
  Value measured: "81.2%"

----------
# Tested on: 931267-113-T-J1-PDC multicell spheroid viability
# Protocol description: Anticancer human tumor 931267-113-T-J1-PDC cell line growth inhibition [PI3K];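 also: viability read 7 days after compound addition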
# Experimental context: second compound 0.00316 µM; first compound 0.1 µM; stronger effect = lower value
Experimental endpoint: viability, T/C (%)

- Compound: "CNC(=O)c1ccc(N2C(=S)N(c3ccc(C#N)c(C(F)(F)F)c3)C(=O)C2(C)C)cc1F + CC(Nc1ccc2c(c1)OCCn1cc(N3C(=O)OCC3C(F)F)nc1-2)C(N)=O"
  Value measured: 102
- Compound: "Cn1ncc(Cl)c1-c1cc(C(=O)NC(CN)Cc2cccc(F)c2)sc1Cl (stereo not drawn) + COc1c(OCCCN2CCOCC2)ccc2c3n(c(=NC(=O)c4cnc(N)nc4)nc12)CCN3"
  Value measured: 102
- Compound: "CC(Cn1ccc(-c2ccc(C#N)c(Cl)c2)n1)NC(=O)c1cc(C(C)O)[nH]n1 (stereo not drawn) + COc1c(OCCCN2CCOCC2)ccc2c3n(c(=NC(=O)c4cnc(N)nc4)nc12)CCN3"
  Value measured: 96.7
- Compound: "CC(=O)c1c(C)c2cnc(Nc3ccc(N4CCNCC4)cn3)nc2n(C2CCCC2)c1=O + COc1c(OCCCN2CCOCC2)ccc2c3n(c(=NC(=O)c4cnc(N)nc4)nc12)CCN3"
  Value measured: 94.8
- Compound: "CC1(C)CCC(Nc2ncc(C(F)(F)F)c(-c3c[nH]c4c(P(C)(C)=O)c(C#N)ccc34)n2)CN1 (stereo not drawn) + CC(Nc1ccc2c(c1)OCCn1cc(N3C(=O)OCC3C(F)F)nc1-2)C(N)=O"
  Value measured: 88.6
- Compound: "CC(C)n1nc(-c2ccc3oc(N)nc3c2)c2c(N)ncnc21 + COc1c(OCCCN2CCOCC2)ccc2c3n(c(=NC(=O)c4cnc(N)nc4)nc12)CCN3"
  Value measured: 47.3
- Compound: "CC1(C)CCC(CN2CCN(c3ccc(C(=O)NS(=O)(=O)c4ccc(NCC5CCOCC5)c([N+](=O)[O-])c4)c(Oc4cnc5[nH]ccc5c4)c3)CC2)=C(c2ccc(Cl)cc2)C1 + CC(Nc1ccc2c(c1)OCCn1cc(N3C(=O)OCC3C(F)F)nc1-2)C(N)=O"
  Value measured: 102
- Compound: "CCCS(=O)(=O)Nc1ccc(F)c(C(=O)c2c[nH]c3ncc(-c4ccc(Cl)cc4)cc23)c1F + COc1c(OCCCN2CCOCC2)ccc2c3n(c(=NC(=O)c4cnc(N)nc4)nc12)CCN3"
  Value measured: 116

----------
Reported values of viability, T/C for individual entries
# System: 931267-113-T-J1-PDC multicell spheroid viability
# Protocol description: Anticancer human tumor 931267-113-T-J1-PDC cell line growth inhibition [PI3K];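 also: viability read 7 days after compound addition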
# Experimental context: second compound 0.0316 µM; first compound 1 µM; stronger effect = lower value

- Compound: "CC(Cn1ccc(-c2ccc(C#N)c(Cl)c2)n1)NC(=O)c1cc(C(C)O)[nH]n1 (stereo not drawn) + CC(Nc1ccc2c(c1)OCCn1cc(N3C(=O)OCC3C(F)F)nc1-2)C(N)=O"
  Measured target: "931267-113-T-J1-PDC multicell spheroid viability"
  viability, T/C, %: 89.8
- Compound: "CNC(=O)c1ccc(N2C(=S)N(c3ccc(C#N)c(C(F)(F)F)c3)C(=O)C2(C)C)cc1F + CC(Nc1ccc2c(c1)OCCn1cc(N3C(=O)OCC3C(F)F)nc1-2)C(N)=O"
  Measured target: "931267-113-T-J1-PDC multicell spheroid viability"
  viability, T/C, %: 90.1
- Compound: "C[C@@H](NC(=O)c1ncnc(N)c1Cl)c1ncc(C(=O)Nc2cc(C(F)(F)F)c(Cl)cn2)s1 + COc1c(OCCCN2CCOCC2)ccc2c3n(c(=NC(=O)c4cnc(N)nc4)nc12)CCN3"
  Measured target: "931267-113-T-J1-PDC multicell spheroid viability"
  viability, T/C, %: 92.1
